- assay_target: PA-I galactophilic lectin (Pseudomonas aeruginosa (strain ATCC 15692 / PAO1 / 1C / PRS 101 / LMG12228))
- Sequence (Q05097 whole entry): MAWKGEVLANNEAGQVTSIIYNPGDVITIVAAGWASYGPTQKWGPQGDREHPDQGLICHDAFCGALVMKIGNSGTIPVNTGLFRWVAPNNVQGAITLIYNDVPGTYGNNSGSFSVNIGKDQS
- procedure_summary: Binding affinity to Pseudomonas aeruginosa PAO1 LecA assessed as dissociation constant by ITC analysis
property_measured: Kd (µM)
The response must be a number in µM with no trailing unit.

Exam item: Value lookup for Kd; key = "O=C1N[C@@H](Cc2c[nH]c3ccccc23)C(=O)N[C@H]1CO[C@@H]1O[C@H](CO)[C@H](O)[C@H](O)[C@H]1O"
Marked response: 91.3

* * *

- procedure_summary: Stability of the compound in rabbit plasma assessed as retention rate at 200 to 1000 uM and measured upto 24 hrs by HPLC analysis
- Type: ADME, cell-free, Oryctolagus cuniculus
- assay_setup: dose 200-1000 µM, read-out: Stability
property_measured: remaining at 24 h, up to 1000 µM

O=C1N[C@@H](Cc2c[nH]c3ccccc23)C(=O)N[C@H]1CO[C@@H]1O[C@H](CO)[C@H](O)[C@H](O)[C@H]1O	> 70%

Now look at this entry.
Exam item: Value lookup for remaining at 24 h, up to 1000 µM; key = "O=C1N[C@@H](Cc2c[nH]c3ccccc23)C(=O)N[C@H]1CO[C@@H]1O[C@H](CO)[C@@H](O)[C@H](O)[C@H]1O"
Marked response: > 70%

* * *

- procedure_summary: Toxicity in sheep red blood cells assessed as induction of hemolysis measured after 4 hr
- Assay type: cell-based, Ovis aries, Erythrocyte
Reported HC50 at 4 h values follow for various molecules

O=C1N[C@@H](Cc2c[nH]c3ccccc23)C(=O)N[C@H]1CO[C@@H]1O[C@H](CO)[C@H](O)[C@H](O)[C@H]1O	> 10 mM

Exam item: Value lookup for HC50 at 4 h; key = "O=C1N[C@@H](Cc2c[nH]c3ccccc23)C(=O)N[C@H]1CO[C@@H]1O[C@H](CO)[C@@H](O)[C@H](O)[C@H]1O"
Marked response: > 10 mM
